system: MOLT-4; assay: NCI tumour cell line growth inhibition, 48 h
Active and inactive are the calls of the source. No stated cut-off is given here; in the data, active = GI50 up to about 1.1 µM and inactive = higher.
readout: GI50

[[record]]
molecule = "O=C1NC2(CCCCCC2)C2CCCCCCC12O (configuration not stated)"
result = "> 100 µM (inactive)"

[[record]]
molecule = "COc1cc(CCc2ccc(OCCN(C)C)cc2)cc(OC)c1OC"
result = "32.6 µM (inactive)"

[[record]]
molecule = "CCNC(=O)C#CC(=O)NCC"
result = "> 100 µM (inactive)"

[[record]]
molecule = "c1c2c(cc3c1OCO3)-c1cc3ccc4c(c3c[n+]1CC2)OCO4 [COPTISINE CHLORIDE]"
result = "1.29 µM (inactive)"

[[record]]
molecule = "CC(=O)OC1C2CCC1C1C2C2(Cl)C(Cl)=C(Cl)C1(Cl)C2(Cl)Cl (configuration not stated)"
result = "11 µM (inactive)"

[[record]]
molecule = "O=C1Nc2cc(Cl)ccc2N=CC1NC(=O)C(c1ccccc1)c1ccccc1Cl (configuration not stated)"
result = "> 100 µM (inactive)"

[[record]]
molecule = "CC[P+](C#Cc1ccccc1)(c1ccccc1)c1ccccc1"
result = "1.36 µM (inactive)"

[[record]]
molecule = "CN(C)CCCNC(=O)c1cccc2nc3ccccc3nc12"
result = "9.77 µM (inactive)"

[[record]]
molecule = "O=C(/C=C/c1ccc(Cl)c(Cl)c1)c1ccc(F)cc1"
result = "15.8 µM (inactive)"

[[record]]
molecule = "CC1(C=O)CCC23COC4(CCC5C6(C)CCC(OC7OCC(OC8OC(CO)C(O)C(OC9OC(CO)C(O)C(O)C9O)C8OC8OCC(O)C(O)C8O)C(O)C7OC7OC(CO)C(O)C(O)C7O)C(C)(C)C6CCC5(C)C4(C)CC2O)C3C1 (configuration not stated)"
result = "0.367 µM (active)"

[[record]]
molecule = "CCCCCCCCCCCCCCCCNCCCN(C)CCCN"
result = "28.8 µM (inactive)"

[[record]]
molecule = "Cn1c(=O)nc2n(-c3ccc(F)cc3)c3ccccc3nc-2c1=O"
result = "25.7 µM (inactive)"

[[record]]
molecule = "O=C1OCCC1(Cc1ccc(Cl)cc1)Cc1ccc(Cl)cc1"
result = "> 100 µM (inactive)"

[[record]]
molecule = "Nc1onc2c1Cc1c(noc1N)-c1ccccc1-2"
result = "74.8 µM (inactive)"

[[record]]
molecule = "O=C(Nc1ccc(Cl)c(Cl)c1)C(=O)Nn1c(S)nc2ccccc2c1=O"
result = "> 100 µM (inactive)"

[[record]]
molecule = "CCOC1CN=C(Nc2cccc3ccccc23)S1 (configuration not stated)"
result = "> 10 µM (inactive)"

[[record]]
molecule = "CCN(CC)CC(C(=O)Nc1c(C)cccc1C)/C(C)=N\\NC(=O)C[N+](C)(C)C (configuration not stated)"
result = "> 100 µM (inactive)"

[[record]]
molecule = "CCOC(=O)C(NC(=O)c1ccccc1)(Nc1ccc(S(=O)(=O)Nc2cc(C)on2)cc1)C(F)(F)F (configuration not stated)"
result = "> 100 µM (inactive)"

[[record]]
molecule = "O=CNc1ccc2c(c1)C(=O)c1ccccc1-2"
result = "44.7 µM (inactive)"

[[record]]
molecule = "N#[N+]c1cc2c(cc1Br)-c1ccccc1C2"
result = "10.3 µM (inactive)"

[[record]]
molecule = "O=C(CO[N+](=O)[O-])OCC(=O)c1ccccc1"
result = "> 100 µM (inactive)"

[[record]]
molecule = "CC(=O)N1CCN(C23OC4(N5CCN(C(C)=O)CC5)C5C6CC(C7C6C4C72)C53)CC1 (configuration not stated)"
result = "> 100 µM (inactive)"

